Value source: patent US20170355770A1

Known koff of a selection of binders
# Target of assay: PD-L1 ligand (analyte of the Octet affinity measurement) (UniProt Q9NZQ7 19-238, limits assumed)
# Sequence (Q9NZQ7 19-238 limits assumed): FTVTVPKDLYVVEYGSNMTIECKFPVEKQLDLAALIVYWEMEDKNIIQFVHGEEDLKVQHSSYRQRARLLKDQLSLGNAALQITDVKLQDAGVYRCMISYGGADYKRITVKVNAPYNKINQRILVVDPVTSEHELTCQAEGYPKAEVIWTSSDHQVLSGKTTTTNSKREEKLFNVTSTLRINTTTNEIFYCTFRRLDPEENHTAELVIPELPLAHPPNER
# Assay info: BLI (Octet RED 96), antibody captured on anti-human IgG sensor, PD-L1 in solution, 1:1 fit

Examples with answers:
Binder | Assay endpoint | Assay result
chimeric anti-PD-L1 antibody 110B4 (antibody, V domains shown) VH: CQSVKESEGGLFKPTDTLTLTCKVSGIDLSSISISWVRQAPGNGLEWIGVINSYGNTYYASWAKSRSTITRNTNENTVTLKMTSLTAADTATYFCAKEILYYGMDLWGPGTLVTVSS VL: DVVMTQTPASVEAAVGGTVTIKCQASQSISSYFSWYQQKPGQRPKLLIYDASNLESGVPSRFKGSRSGTEYTLTISDLEWDDAATYYCQCTYGSTSSSNYGNNFGGGTKVVVVR | koff | 6.87e-05 s⁻¹
chimeric anti-PD-L1 antibody 115E2 (antibody, V domains shown) VH: CQSVKESEGGLFKPMDTLTLTCTVSGIDLGSVAISWVRQAPGKGLEWIGTIGSSGSAYYASWAKSRSTITRNTNLNTVTLKMTSLTAADTASYFCAKEILYYGMDRWGPGTLVTVSS VL: DVVMTQTPASVEASVGGTVTINCQASQSISSYLAWYQQKPGQPPKLLIYAASNLEPGVPSRFKGSGSGTEFTLTISDLECADAATYYCQATYGSTSSSDYGNAFGGGTKVVVVR | koff | 4.99e-05 s⁻¹

Now turn to the next binder.
Q: Consider the binder chimeric anti-PD-L1 antibody 110H8 (antibody, V domains shown) VH: CQSVKESEGGLFKPTDTLTLTCTVSGIDLSSVSISWVRQAPGNGLEWIGTIGASGSAYYASWAKRRSTITRNTNLNTVTLKMTSLTAADTASYFCAKEILYYGMDLWGPGTLVTVSS VL: DVVMTQTPASVEAAVGGTVTIKCQASQSISNYLAWYQQKPGQRPKLLIYAASNLEPGVPSRFKGSGSGTEYTLTITDLECDDAATYHCQCTYGSTSSSDYGNAFGGGTKVVVVR and give its measured koff.
Result: < 1e-07 s⁻¹
